Tested on: Oryza sativa, (L.) Tebonnet
Method Summary: Rice tolerance to post-transplant applications under flooded paddy conditions (Example 187), ORYSAT (Rice, Tebonnet); note: meaning of each grade not given here
Study Conditions: Rate 0.0320 kg/ha, rated three to four weeks after treatment
Recorded herbicidal effect rating ORYSAT, one value per entry.
Would you mind answering with just the numeric figure?

[
  {
    "Molecule": "C=C(Cl)COC(=O)c1nsc2ccc(-n3c(=O)cc(C(F)(F)F)n(C)c3=O)cc12",
    "herbicidal effect rating ORYSAT": 5.0
  },
  {
    "Molecule": "CCSCCOC(=O)c1nsc2ccc(-n3c(=O)cc(C(F)(F)F)n(C)c3=O)cc12",
    "herbicidal effect rating ORYSAT": 3.0
  },
  {
    "Molecule": "Cn1c(C(F)(F)F)cc(=O)n(-c2ccc3snc(C(=O)Oc4ccc(F)cc4)c3c2)c1=O",
    "herbicidal effect rating ORYSAT": 1.5
  },
  {
    "Molecule": "Cn1c(C(F)(F)F)cc(=O)n(-c2ccc3snc(C(=O)NS(=O)(=O)CCl)c3c2)c1=O [Example 334]",
    "herbicidal effect rating ORYSAT": 0.0
  },
  {
    "Molecule": "Cn1c(C(F)(F)F)cc(=O)n(-c2cc3c(C(Br)Br)nsc3cc2F)c1=O",
    "herbicidal effect rating ORYSAT": 6.0
  },
  {
    "Molecule": "COc1ccccc1C=C(C#N)c1nsc2ccc(-n3c(=O)cc(C(F)(F)F)n(C)c3=O)cc12",
    "herbicidal effect rating ORYSAT": 2.0
  },
  {
    "Molecule": "Cn1c(C(F)(F)F)cc(=O)n(-c2ccc3snc(-c4ccccc4OCC(=O)O)c3c2)c1=O",
    "herbicidal effect rating ORYSAT": 5.0
  },
  {
    "Molecule": "Cc1ccc(OC(C)(C)C(=O)NS(C)(=O)=O)c(-c2nsc3ccc(-n4c(=O)cc(C(F)(F)F)n(C)c4=O)cc23)c1",
    "herbicidal effect rating ORYSAT": 4.0
  }
]

Could you please provide reported herbicidal effect rating ORYSAT for COC(=O)COc1cccc(-c2nsc3ccc(-n4c(=O)cc(C(F)(F)F)n(C)c4=O)cc23)c1 ? Thanks! 5.5

Could you please provide reported herbicidal effect rating ORYSAT for CC(C)NC(=O)c1nsc2ccc(-n3c(=O)cc(C(F)(F)F)n(C)c3=O)cc12 ? Thanks! 7.0

* * *

System: Echinochloa oryzoides (Ard.) Fritsch.
Method Summary: Preemergence weed control under flooded paddy conditions, ECHORC (Watergrass (Calif.))
Format: in vivo
Study Conditions: 0.1250 kg/ha; preemergence, flooded paddy; rated three to four weeks after treatment
Binary call on ECHORC herbicidal rating with cut-off 7: strictly below means Criterion met, and equality or higher means Criterion not met.

[
  {
    "Compound": "Cn1c(C(F)(F)F)cc(=O)n(-c2ccc3snc(C(C)(C)C(N)=O)c3c2)c1=O",
    "Classification": "Criterion met"
  },
  {
    "Compound": "C=CCOC(=O)C(C)(C)c1nsc2ccc(-n3c(=O)cc(C(F)(F)F)n(C)c3=O)cc12",
    "Classification": "Criterion not met"
  },
  {
    "Compound": "Cn1c(C(F)(F)F)cc(=O)n(-c2ccc3snc(COC(=O)C(C)(C)C)c3c2)c1=O",
    "Classification": "Criterion met"
  },
  {
    "Compound": "COC(=O)COc1cc(Cl)c(C)cc1-c1nsc2ccc(-n3c(=O)cc(C(F)(F)F)n(C)c3=O)cc12",
    "Classification": "Criterion not met"
  },
  {
    "Compound": "Cn1c(C(F)(F)F)cc(=O)n(-c2ccc3snc(COC(=O)c4cccnc4Cl)c3c2)c1=O",
    "Classification": "Criterion met"
  },
  {
    "Compound": "CCC(C(=O)OCc1nsc2ccc(-n3c(=O)cc(C(F)(F)F)n(C)c3=O)cc12)c1ccccc1 (stereo not drawn)",
    "Classification": "Criterion met"
  },
  {
    "Compound": "COC(CCOc1ccc(C)cc1-c1nsc2ccc(-n3c(=O)cc(C(F)(F)F)n(C)c3=O)cc12)OC",
    "Classification": "Criterion not met"
  },
  {
    "Compound": "Cn1c(C(F)(F)F)cc(=O)n(-c2ccc3snc(COCOCc4ccccc4)c3c2)c1=O",
    "Classification": "Criterion not met"
  },
  {
    "Compound": "Cn1c(C(F)(F)F)cc(=O)n(-c2ccc3snc(COC(=O)c4cc(Cl)nc(Cl)c4)c3c2)c1=O",
    "Classification": "Criterion met"
  }
]

Below: the item to evaluate.
Determine if Cn1c(C(F)(F)F)cc(=O)n(-c2ccc3snc(C(C)(C)C(=O)OCc4ccccn4)c3c2)c1=O shows ECHORC herbicidal rating strictly lower than 7. Criterion not met
